molecular target: DYRK3 (human) (UniProt O43781); assay: radiometric filter-binding kinase assay, Kinase HotSpot; settings: compound 0.5 µM; ATP 10 µM
Sequence (O43781 whole entry, looked up): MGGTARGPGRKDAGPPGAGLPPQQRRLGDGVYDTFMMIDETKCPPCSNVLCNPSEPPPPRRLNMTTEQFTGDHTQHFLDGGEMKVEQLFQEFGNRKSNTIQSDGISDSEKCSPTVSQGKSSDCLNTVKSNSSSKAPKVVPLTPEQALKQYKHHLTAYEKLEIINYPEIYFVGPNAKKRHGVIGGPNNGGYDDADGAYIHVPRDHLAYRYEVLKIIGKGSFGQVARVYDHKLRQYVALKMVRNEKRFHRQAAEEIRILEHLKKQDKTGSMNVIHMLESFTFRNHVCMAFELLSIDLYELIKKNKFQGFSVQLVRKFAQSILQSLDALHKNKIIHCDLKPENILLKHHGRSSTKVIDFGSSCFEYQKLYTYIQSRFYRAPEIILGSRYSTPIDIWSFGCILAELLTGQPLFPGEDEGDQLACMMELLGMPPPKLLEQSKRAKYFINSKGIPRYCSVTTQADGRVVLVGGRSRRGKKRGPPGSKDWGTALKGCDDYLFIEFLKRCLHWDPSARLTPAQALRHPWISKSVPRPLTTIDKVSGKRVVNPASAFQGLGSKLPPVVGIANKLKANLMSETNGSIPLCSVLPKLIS
assay_metric: residual activity (%)

| smiles_code | recorded_value |
| --- | --- |
| COc1cc2ncnc(Nc3ccc(Oc4ccccc4)cc3)c2cc1OC | 103 |
| c1ccc2c(-c3ccncc3)c[nH]c2c1 | 101 |
| COc1ccc(C(=O)Nc2sc3c(c2C(N)=O)CCCC3)cc1OC | 98 |
| COc1ccc2c(c1)/C(=C/c1cnc[nH]1)C(O)=N2 | 98.6 |
| C[C@@H]1CCN(C(=O)CC#N)C[C@@H]1N(C)c1ncnc2[nH]ccc12 | 106 |
| O=C1C(Cl)=C(N2C(=O)CCC2=O)C(=O)c2ccccc21 | 95.4 |
| CN(C)S(=O)(=O)c1ccc2c(c1)/C(=C/c1cc3c([nH]1)CCCC3)C(=O)N2 | 99.1 |
| O=C1c2ccccc2-c2nc3nnnn3nc21 | 88.6 |
| COc1cc2ncnc(Nc3ccc(OCc4ccccc4)cc3)c2cc1OC | 101 |
| CS(=O)(=O)CCNCc1ccc(-c2ccc3ncnc(Nc4ccc(OCc5cccc(F)c5)c(Cl)c4)c3c2)o1 | 90.2 |
| COc1ccc2c(c1)c(C1=C(c3c[nH]c4ccccc34)C(=O)NC1=O)cn2CCCN(C)C | 81 |
| N#C/C(=C\c1ccc(O)c(O)c1)C(=O)NCc1ccccc1 | 99.6 |
| Cn1c2ccccc2c2c3c(c4c5ccccc5n(CCC#N)c4c21)CNC3=O | 83.9 |
| CC(C)(C)c1cc(C=C(C#N)C#N)cc(Br)c1O | 102 |
| COc1ccc(S(=O)(=O)N(CCO)c2ccccc2CN(C)C/C=C/c2ccc(Cl)cc2)cc1 | 113 |
| CN(C)c1ccc(/C=C2\C(=O)Nc3ccccc32)cc1 | 99.5 |
| CN(C)CCCn1cc(C2=C(c3c[nH]c4ccccc34)C(=O)NC2=O)c2ccccc21 | 97.9 |
| N#Cc1c[nH]c2c[nH]/c(=N\Cc3cccnc3)cc2/c1=N\c1ccc(F)c(Cl)c1 | 96.3 |
| Cc1nc(-c2ccccc2)c(-c2ccncc2)o1 | 105 |
| NC(=O)c1cccc(-c2cc(Nc3ccc(OC(F)(F)F)cc3)ncn2)c1 | 99.9 |
